Test system: Human AML MV-4-11 cells
Experiment: Inhibition of cell proliferation in MV4-11 cells
Assay type: cell-based
Parameters: key: Active: Compounds with an IC50 value less than 30 μM are deemed to be active.; Not Active: Compounds with an IC50 value less than 30 μM are deemed to be active
Conditions: 72 hours
Where a name gives a salt, the structure may show the parent alone.
test_readout: cell proliferation activity (IC50 < 30 μM)

Example entries begin here.
For COc1cc(F)cc2nc(-c3cccc(N4CCN(C(C)C)CC4)n3)[nH]c(=O)c12 [Example 21, Hydrochloride] , what is its reported cell proliferation activity (IC50 < 30 μM)?
Active

For COc1cc(OC)c2c(=O)[nH]c(-c3cc(Cl)cc(N4CCNCC4)c3)nc2c1 , what is its reported cell proliferation activity (IC50 < 30 μM)?
Active

For COc1cc(OC)c2c(=O)[nH]c(-c3ccc(OC)c(N4CCN(C(C)C)CC4)n3)nc2c1 , what is its reported cell proliferation activity (IC50 < 30 μM)?
Active

For COc1cc(OC)c2c(=O)[nH]c(-c3cc(Cl)cc(N4CCN(C(C)C)CC4)c3)nc2c1 , what is its reported cell proliferation activity (IC50 < 30 μM)?
Active

For COc1cc(OC)c2c(=O)[nH]c(-c3cccc(N4CCN(C(C)CO)CC4)n3)nc2c1 (stereo not shown) , what is its reported cell proliferation activity (IC50 < 30 μM)?
Active

For each listed entry, give its cell proliferation activity (IC50 < 30 μM).
1. COc1cc(OC)c2c(=O)[nH]c(-c3cccc(N4CCN(C)CC4)n3)nc2c1 [Example 15, Hydrochloride]
2. COc1cc(OC)c2c(=O)[nH]c(-c3ccc(OCCNC(C)C)c(N4CCN(C(C)C)CC4)n3)nc2c1 [Example 12, bis(trifluoroacetate)]
3. COc1cc(OC)c2c(=O)[nH]c(-c3cccc(N4CCN(CCS(C)(=O)=O)CC4)n3)nc2c1
4. COc1cc(OC)c2c(=O)[nH]c(-c3cccc(N4CCN(CC(C)C)CC4)n3)nc2c1
5. COc1ccc(OCc2ccccc2)c2nc(-c3cccc(N4CCN(C(C)C)CC4)c3)[nH]c(=O)c12

1: Active; 2: Active; 3: Not Active; 4: Active; 5: Not Active

----------
System: Human AML MV-4-11 cells
Test: Inhibition of cell proliferation in MV4-11 cells
Format: cell-based
Design: key: Active: Compounds with an IC50 value less than 30 μM are deemed to be active.; Not Active: Compounds with an IC50 value less than 30 μM are deemed to be active
Settings: 72 hours
Counter-ions that a name gives are not always drawn.
test_readout: cell proliferation activity (IC50 < 30 μM)

Example entries begin here.
For COc1cc(-c2nc3cc(OC)cc(OC)c3c(=O)[nH]2)cc(N2CCN(C(C)C)CC2)c1 , what is its reported cell proliferation activity (IC50 < 30 μM)?
Active

For COc1cc(OC)c2c(=O)[nH]c(-c3cc(OC(F)(F)F)cc(N4CCN(C(C)C)CC4)c3)nc2c1 , what is its reported cell proliferation activity (IC50 < 30 μM)?
Not Active

For CCC(=O)N1CCN(c2cccc(-c3nc4cc(OC)cc(OC)c4c(=O)[nH]3)n2)CC1 [Example 19, dihydrochloride] , what is its reported cell proliferation activity (IC50 < 30 μM)?
Not Active

For COc1cc(OCc2ccccc2)cc2nc(-c3cccc(N4CCN(C(C)C)CC4)n3)[nH]c(=O)c12 [Example 22, Hydrochloride] , what is its reported cell proliferation activity (IC50 < 30 μM)?
Active

For COc1cc(OC)c2c(=O)[nH]c(-c3cccc(N4CCN(CCO)CC4)n3)nc2c1 , what is its reported cell proliferation activity (IC50 < 30 μM)?
Active

For each listed entry, give its cell proliferation activity (IC50 < 30 μM).
1. COc1cc(OC)c2c(=O)[nH]c(-c3cccc(N4CCN(C(C)C)CC4)c3)nc2c1
2. COc1cc(N2CCN(C(C)C)CC2)cc2nc(-c3cccc(N4CCN(C(C)C)CC4)n3)[nH]c(=O)c12 [Example 23, Hydrochloride]

1. Not Active
2. Active
